biological target: Cytochrome P450 3A4 (Homo sapiens, UniProt P08684)
Sequence (P08684 whole entry): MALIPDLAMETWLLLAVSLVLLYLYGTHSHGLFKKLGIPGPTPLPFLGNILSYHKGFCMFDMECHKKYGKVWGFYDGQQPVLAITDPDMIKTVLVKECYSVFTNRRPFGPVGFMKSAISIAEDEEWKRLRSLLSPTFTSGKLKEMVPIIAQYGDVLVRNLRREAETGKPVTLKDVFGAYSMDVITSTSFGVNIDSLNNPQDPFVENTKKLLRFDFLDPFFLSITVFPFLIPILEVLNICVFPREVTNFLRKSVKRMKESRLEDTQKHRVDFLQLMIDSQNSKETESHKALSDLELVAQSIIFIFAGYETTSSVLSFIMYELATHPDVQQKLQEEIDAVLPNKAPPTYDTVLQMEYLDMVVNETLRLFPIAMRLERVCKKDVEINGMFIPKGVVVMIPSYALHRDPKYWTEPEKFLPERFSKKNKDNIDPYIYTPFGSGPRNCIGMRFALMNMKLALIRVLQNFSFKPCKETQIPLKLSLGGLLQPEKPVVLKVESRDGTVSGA

- molecule: "CC(c1c[nH]c(=O)c2ccccc12)N(C)C(=O)Nc1ccc(F)c(Cl)c1 (stereo unspecified)"
  IC50: "> 20 µM"

---

experiment: Microsomal stability in mouse liver microsomes assessed as intrinsic clearance; type: ADME, Microsome; conditions: read-out: CLH
Reported microsomal CLint values follow for various compounds
result_type: microsomal CLint (µL/min/mg)

- compound: "C[C@H](c1c[nH]c(=O)c2cc(F)c(F)cc12)N(C)C(=O)Nc1ccc(F)cc1"
  unit_text: "µL/min/mg"
  reported: 35
- compound: "C[C@H](c1c[nH]c(=O)c2cc(F)c(F)cc12)N(C)C(=O)Nc1cccc(Cl)c1"
  unit_text: "µL/min/mg"
  reported: 30
- compound: "CCCN(C(=O)Nc1ccc(F)c(Cl)c1)[C@H](C)c1c[nH]c(=O)c2ccccc12"
  unit_text: "µL/min/mg"
  reported: 190
- compound: "CC(c1c[nH]c(=O)c2ccccc12)N(C(=O)Nc1ccc(F)c(Cl)c1)C1CC1 (stereo not given)"
  unit_text: "µL/min/mg"
  reported: 172
- compound: "C[C@H](c1c[nH]c(=O)c2cc(F)c(F)cc12)N(C)C(=O)c1cc2ccccc2[nH]1"
  unit_text: "µL/min/mg"
  reported: 50
